Target: T1, recombinant human OX40L (extracellular domain, R&D Systems) (human, UniProt P23510 51-183)
T1 sequence: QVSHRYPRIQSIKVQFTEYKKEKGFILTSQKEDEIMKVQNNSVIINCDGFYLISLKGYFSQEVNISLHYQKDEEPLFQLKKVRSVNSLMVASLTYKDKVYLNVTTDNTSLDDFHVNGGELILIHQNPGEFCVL
Test: cell-based or functional assay
Measure: IC50, T cell assay with rec. hOX40L (nM)
Write the answer as a number in nM, unit excluded.

Check out these entries, answers already filled in.
[
  {
    "Binder": "OX40L041 (VHH, not shown: small tags and cut ends) VHH: DVQLVESGGGLVQPGGSLRLSCAASRSIGRLDRMGWYRHATGEPRELVATITGGSSINYGDFVKGRFTISRDNSKNTVYLQMNSLRPEDTAVYYCNFNKYVTSRDTWGQGTLVTVSS",
    "IC50, T cell assay with rec. hOX40L, nM": 64
  },
  {
    "Binder": "OX40L048 (VHH, not shown: small tags and cut ends) VHH: DVQLVESGGGLVQPGGSLRLSCAASRSIGRLDRMGWYRHRTGEPRELVATITGGSSINYADFVKGRFTISRDNSKNTVYLQMNSLRPEDTAVYYCNFNKYVTSRDTWGQGTLVTVSS",
    "IC50, T cell assay with rec. hOX40L, nM": 32
  },
  {
    "Binder": "OX40L049 (VHH, not shown: small tags and cut ends) VHH: DVQLVESGGGLVQPGGSLRLSCAASRSIGRLDRMGWYRHRTGEPRELVATITGGSSINYGDSVKGRFTISRDNSKNTVYLQMNSLRPEDTAVYYCNFNKYVTSRDTWGQGTLVTVSS",
    "IC50, T cell assay with rec. hOX40L, nM": 12
  },
  {
    "Binder": "OX40L030 (VHH, not shown: small tags and cut ends) VHH: DVQLVESGGGLVQAGGSLRLSCAASRSIGRLDRMGWYRHRTGEPRELVATITGGSSINYGDFVKGRFTISIDNAKNTVYLQMNNLKPEDTAVYYCNFNKYVTSRDTWGQGTQVTVSS",
    "IC50, T cell assay with rec. hOX40L, nM": 11
  }
]

### Prompt Input OX40L046 (VHH, not shown: small tags and cut ends) VHH: DVQLVESGGGLVQPGGSLRLSCAASRSIGRLDRMGWYRHRPGKPRELVATITGGSSINYGDFVKGRFTISRDNSKNTVYLQMNSLRPEDTAVYYCNFNKYVTSRDTWGQGTLVTVSS , output reported IC50, T cell assay with rec. hOX40L.
### Response 57

### Prompt Input OX40L056 (VHH, not shown: small tags and cut ends) VHH: DVQLVESGGGLVQPGGSLRLSCAASRSIGRLDRMGWYRHRPGKPRELVATITGGSSINYADSVKGRFTISRDNSKNTVYLQMNSLRPEDTAVYYCNFNKYVTSRDTWGQGTLVTVSS , output reported IC50, T cell assay with rec. hOX40L.
### Response 135
